The origin of these recorded values is ChEMBL document CHEMBL4311947.

SYSTEM: M-phase inducer phosphatase 2 (Homo sapiens)
Sequence (P30305 whole entry, the tested form may be a part): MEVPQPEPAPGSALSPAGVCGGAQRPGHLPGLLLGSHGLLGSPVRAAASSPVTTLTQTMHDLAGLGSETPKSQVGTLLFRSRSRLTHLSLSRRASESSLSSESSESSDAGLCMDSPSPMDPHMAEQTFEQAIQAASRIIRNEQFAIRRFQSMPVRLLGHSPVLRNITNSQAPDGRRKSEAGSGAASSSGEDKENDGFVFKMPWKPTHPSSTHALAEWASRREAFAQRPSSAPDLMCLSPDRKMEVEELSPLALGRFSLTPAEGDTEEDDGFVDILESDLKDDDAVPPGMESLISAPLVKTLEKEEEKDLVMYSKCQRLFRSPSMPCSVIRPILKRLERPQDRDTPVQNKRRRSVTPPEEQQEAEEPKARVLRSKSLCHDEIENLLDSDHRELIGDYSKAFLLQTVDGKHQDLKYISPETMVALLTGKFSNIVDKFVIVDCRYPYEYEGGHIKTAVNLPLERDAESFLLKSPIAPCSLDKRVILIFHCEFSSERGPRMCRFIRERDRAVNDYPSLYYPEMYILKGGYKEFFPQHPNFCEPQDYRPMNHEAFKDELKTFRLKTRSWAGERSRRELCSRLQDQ
METHOD_NOTES: Non-competitive inhibition of N-terminal His6-tagged human CDC25B (377 to 550 residues) expressed in Escherichia coli BL21(DE3) cells using OMFP as substrate by double reciprocal Lineweaver-Burk plot analysis
Decision: Ki beneath 10 µM gives rule met; Ki meeting or exceeding 10 µM gives rule not met.

ENTRY_SMILES	SYSTEM	ASSIGNED_CLASS
O=C(O)c1cccc(Nc2cccc3c(O)cccc23)c1	M-phase inducer phosphatase 2 (Homo sapiens)	rule met
CCOC(=O)c1ccccc1Nc1cccc2c(O)cccc12	M-phase inducer phosphatase 2 (Homo sapiens)	rule met
CCOC(=O)c1cccc(Nc2cccc3c(O)cccc23)c1	M-phase inducer phosphatase 2 (Homo sapiens)	rule met
COc1ccc(C(=O)c2ccccc2C(=O)O)c2ccccc12	M-phase inducer phosphatase 2 (Homo sapiens)	rule met
Nc1cccc2c(Nc3cccc(C(=O)O)c3)cccc12	M-phase inducer phosphatase 2 (Homo sapiens)	rule met
CCOC(=O)c1ccccc1Nc1ccc(OC)c2ccccc12	M-phase inducer phosphatase 2 (Homo sapiens)	rule met
Nc1ccc(Nc2cccc(C(=O)O)c2)c2ccccc12	M-phase inducer phosphatase 2 (Homo sapiens)	rule met
O=C(O)c1ccccc1Nc1cc(O)cc2ccccc12	M-phase inducer phosphatase 2 (Homo sapiens)	rule met
O=C(O)c1ccccc1Nc1ccc(O)c2ccccc12	M-phase inducer phosphatase 2 (Homo sapiens)	rule met
Nc1cccc2c(Nc3ccccc3C(=O)O)cccc12	M-phase inducer phosphatase 2 (Homo sapiens)	rule met
O=C(O)c1ccccc1Nc1cccc2c(O)cccc12	M-phase inducer phosphatase 2 (Homo sapiens)	rule not met
CCOC(=O)c1cccc(Nc2cccc3c(N)cccc23)c1	M-phase inducer phosphatase 2 (Homo sapiens)	rule not met
CCOC(=O)c1cccc(Nc2ccc(OC)c3ccccc23)c1	M-phase inducer phosphatase 2 (Homo sapiens)	rule not met
COc1cc(Nc2ccccc2C(=O)O)c2ccccc2c1	M-phase inducer phosphatase 2 (Homo sapiens)	rule not met
O=C(O)c1cccc(Nc2cc(O)cc3ccccc23)c1	M-phase inducer phosphatase 2 (Homo sapiens)	rule met
O=C(O)c1ccccc1C(=O)c1cc(O)cc2ccccc12	M-phase inducer phosphatase 2 (Homo sapiens)	rule not met
